Every entry's value here was drawn from PubChem BioAssay.

Experiment: reduction of polyQ htt aggregates in cells – imaging, exon1htt(103Q)mCFP cells, high-content imaging, primary screen (AID 483);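 also: compound exposure lasted 3 days before fixation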
Settings: exon1htt(103Q)mCFP cell line, aggregate imaging, at 2 µM; hits give high values
Observable: inhibition of aggregation (%)
The reply should be a number in %, with the unit left off.

Prompt: Consider the compound COc1ccccc1NC(=O)N(Cc1ccco1)Cc1cc2cccc(C)c2[nH]c1=O and give its recorded inhibition of aggregation.
Response: 18.6

Prompt: Consider the compound CCOC(=O)c1[nH]c2ccc(C)cc2c1NC(=O)CN1CCCCC1 and give its recorded inhibition of aggregation.
Response: 5.6

Prompt: Consider the compound CC(=O)N1CCc2cc(S(=O)(=O)NCCC3=CCCCC3)ccc21 and give its recorded inhibition of aggregation.
Response: -11.2

Prompt: Consider the compound CC(C)(C)c1ccc2c(c1)OCC(C(=O)O)O2 (stereo unspecified) and give its recorded inhibition of aggregation.
Response: -7.2

Prompt: Consider the compound O=S(=O)(NCc1ccco1)c1cccc2cccnc12 and give its recorded inhibition of aggregation.
Response: -18.3

Prompt: Consider the compound COC(=O)c1ccccc1NC(=O)Cn1c(-c2nonc2N)nc2ccccc21 and give its recorded inhibition of aggregation.
Response: -2.5

Prompt: Consider the compound COc1cccc(C(=O)n2cnnc2N)c1OC and give its recorded inhibition of aggregation.
Response: 1

Prompt: Consider the compound Cc1ccc(-c2cn3cccnc3n2)cc1NC(=O)c1ccc(Br)o1 and give its recorded inhibition of aggregation.
Response: 30.5

Prompt: Consider the compound c1ccc(-c2cc(-c3nc(-c4ccccn4)no3)c3ccccc3n2)cc1 and give its recorded inhibition of aggregation.
Response: -4.3

Prompt: Consider the compound Cc1ccccc1C(=O)NC1CCN(Cc2nnnn2Cc2ccccc2)CC1 and give its recorded inhibition of aggregation.
Response: -10.9

Prompt: Consider the compound CCCOc1ccc(C2C(C(=O)c3ccc(C)o3)=C(O)C(=O)N2Cc2cccnc2)cc1 (stereo unspecified) and give its recorded inhibition of aggregation.
Response: -9.2

---

Assay: reduction of polyQ htt aggregates in cells – imaging, exon1htt(103Q)mCFP cells, high-content imaging, primary screen (AID 483);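 also: compound exposure lasted 3 days before fixation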
Conditions: exon1htt(103Q)mCFP cell line, aggregate imaging, at 2 µM; hits give high values
Observable: inhibition of aggregation (%)
The reply should be a number in %, with the unit left off.

Prompt: Consider the molecule Cc1cccc(C)c1OCc1nnc2c3cnn(C)c3ncn12 and give its recorded inhibition of aggregation.
Response: -5.7

Prompt: Consider the molecule O=C(CSc1nnnn1-c1ccccc1)Nc1ccc(Cl)cc1 and give its recorded inhibition of aggregation.
Response: 17.5

Prompt: Consider the molecule Nc1[nH]nc2nc(N3CCCC3)nc(-c3ccccc3)c12 and give its recorded inhibition of aggregation.
Response: 20.6

Prompt: Consider the molecule O=C(CSCc1cccc(F)c1)N1CCN(c2ccccc2)CC1 and give its recorded inhibition of aggregation.
Response: 33.7

Prompt: Consider the molecule Cc1ccc2[nH]c(=O)c(C(c3nnnn3CCc3ccccc3)N3CCOCC3)cc2c1 (stereo not drawn) and give its recorded inhibition of aggregation.
Response: 1.1

Prompt: Consider the molecule NCC(O)COc1ccc2c(c1)OCO2 (stereo not drawn) and give its recorded inhibition of aggregation.
Response: -7.4

Prompt: Consider the molecule CN1CCc2nc(SCC(=O)Nc3ccc(F)cc3)c(C#N)cc2C1 and give its recorded inhibition of aggregation.
Response: -16.9

Prompt: Consider the molecule CCOc1nc(-c2ccccc2O)nc2ccccc12 and give its recorded inhibition of aggregation.
Response: -11.6

Prompt: Consider the molecule NC(=O)C1(N2CCCCC2)CCN(CC(=O)Nc2cc(Cl)ccc2Cl)CC1 and give its recorded inhibition of aggregation.
Response: 14.8

Prompt: Consider the molecule CCOC(=O)Cn1c(S(=O)(=O)Cc2ccccc2)nc2ccccc21 and give its recorded inhibition of aggregation.
Response: -22.5

Prompt: Consider the molecule C/C(=C(\C#N)C(=O)NCCCN1CCOCC1)N(C)C and give its recorded inhibition of aggregation.
Response: 20.1

Prompt: Consider the molecule CS(=O)(=O)N(CC(=O)Nc1ccc2c(c1)OCO2)Cc1ccc(Cl)cc1 and give its recorded inhibition of aggregation.
Response: -3.1

Prompt: Consider the molecule C/C(=C\C(=O)c1ccc(F)cc1)Nc1ccc(N2CCOCC2)cc1 and give its recorded inhibition of aggregation.
Response: 20.9

Prompt: Consider the molecule O=c1/c(=C/c2ccco2)sc2nc(-c3ccccc3Br)nn12 and give its recorded inhibition of aggregation.
Response: 14.2

Prompt: Consider the molecule O=C(NCc1ccc2c(c1)OCO2)C1CCC(CNc2c(N3CCCCC3)c(=O)c2=O)CC1 (stereo not drawn) and give its recorded inhibition of aggregation.
Response: 2.3

Prompt: Consider the molecule CC1CCN(C(=O)c2cc(-c3ccc(Cl)c(Cl)c3)on2)CC1 and give its recorded inhibition of aggregation.
Response: 4.2

Prompt: Consider the molecule CCOC(=O)c1c(NC(=O)CSc2nnc(-c3cccnc3)o2)sc(C)c1C and give its recorded inhibition of aggregation.
Response: 24.3

Prompt: Consider the molecule Cc1noc(NS(=O)(=O)c2ccc(NC(=O)CCC3CCCC3)cc2)c1C and give its recorded inhibition of aggregation.
Response: -12.2

Prompt: Consider the molecule Cc1ccc(S(=O)(=O)CCC(=O)Nc2ccc3c(c2)OCO3)cc1 and give its recorded inhibition of aggregation.
Response: -1.1

Prompt: Consider the molecule COC(=O)C1=C(C)N(Cc2ccco2)C(=O)C1 and give its recorded inhibition of aggregation.
Response: 26.2

Prompt: Consider the molecule COc1cccc(C2=NOC(C(=O)Nc3cc(C)nn3-c3ccccc3)C2)c1OC (stereo not drawn) and give its recorded inhibition of aggregation.
Response: -1.5

Prompt: Consider the molecule COc1cc(OC)c(OC)cc1CN(C)CCc1ccccn1 and give its recorded inhibition of aggregation.
Response: -20.8

Prompt: Consider the molecule O=C(CSc1nnc(-c2ccco2)n1CC1CCCO1)N1CCCCC1 (stereo not drawn) and give its recorded inhibition of aggregation.
Response: 9.7

---

Experiment: endothelial E-selectin expression blockers – imaging, HUVEC, immunofluorescence, MLSMR starter and 10KST1 sets, primary screen (AID 487);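 also: signal is fraction of cell area covered by stained E-selectin grains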
Settings: HUVEC TNFalpha-induced E-selectin immunofluorescence imaging, at 2 µM; hits give high values
Threshold rule: inhibition greater than or equal to -40% is 1; below that, -1.

Prompt: Kindly determine if inhibition recorded for Cc1cc(NC(=O)C23CCC(C)(c4nc5cc(Cl)c(Cl)cc5nc42)C3(C)C)no1 (stereo unspecified) is above or exactly -40%.
Response: -1

Prompt: Kindly determine if inhibition recorded for COc1ccc(-c2nnc(SCC(=O)N3CCOCC3)o2)cc1OC is above or exactly -40%.
Response: 1

Prompt: Kindly determine if inhibition recorded for COc1ccc(-c2cc(C(=O)N3CCN(Cc4ccccc4)CC3)no2)cc1OC is above or exactly -40%.
Response: 1

Prompt: Kindly determine if inhibition recorded for CN(C)S(=O)(=O)N1CCN(C(=O)N(c2ccccc2)c2ccccc2)CC1 is above or exactly -40%.
Response: -1

Prompt: Kindly determine if inhibition recorded for COc1ccc(C)cc1S(=O)(=O)N1CCN(Cc2ccccc2)CC1 is above or exactly -40%.
Response: -1

Prompt: Kindly determine if inhibition recorded for CCC(=O)c1ccc(OC(=O)c2ccc(Br)o2)cc1 is above or exactly -40%.
Response: -1

Prompt: Kindly determine if inhibition recorded for C=CCn1c(Cc2csc(N)n2)nnc1SCC(=O)OCC is above or exactly -40%.
Response: 1

Prompt: Kindly determine if inhibition recorded for CCOC(=O)NC(=O)CSc1nnnn1-c1ccc(Cl)cc1 is above or exactly -40%.
Response: -1

Prompt: Kindly determine if inhibition recorded for CC(=O)c1c(C)[nH]c(C(=O)Nc2ccc3c(c2)OCCO3)c1C is above or exactly -40%.
Response: 1

Prompt: Kindly determine if inhibition recorded for CC(=O)Nc1ccc(Cl)cc1C(=O)O is above or exactly -40%.
Response: 1

Prompt: Kindly determine if inhibition recorded for COc1ccc(CN(CC(=O)NCC2CCCO2)C(=O)CCC(=O)Nc2cc(C)on2)cc1 (stereo unspecified) is above or exactly -40%.
Response: 1

---

Test: reduction of polyQ htt aggregates in cells – imaging, exon1htt(103Q)mCFP cells, high-content imaging, primary screen (AID 483);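 also: compound exposure lasted 3 days before fixation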
Details: exon1htt(103Q)mCFP cell line, aggregate imaging, at 2 µM; hits give high values
Observable: inhibition of aggregation (%)
The reply should be a number in %, with the unit left off.

Prompt: Consider the compound CCOc1ccc(N(C(C)C(=O)NC2CCCCCC2)S(C)(=O)=O)cc1 (stereo not drawn) and give its recorded inhibition of aggregation.
Response: -10.8

Prompt: Consider the compound CC(CCc1ccccc1)NC(=O)c1ccc(Br)o1 (stereo not drawn) and give its recorded inhibition of aggregation.
Response: 2.5

Prompt: Consider the compound O=C(Cc1nn[nH]n1)NCCC1=CCCCC1 and give its recorded inhibition of aggregation.
Response: 2.5

Prompt: Consider the compound Cn1c(=O)cc(OCC(=O)NCCCN2CCN(Cc3ccccc3)CC2)c2ccccc21 and give its recorded inhibition of aggregation.
Response: 4.5

Prompt: Consider the compound Nc1cccc2c1C(=O)N(c1ccccc1)C2=O and give its recorded inhibition of aggregation.
Response: -6

Prompt: Consider the compound COC(=O)c1sc(S(=O)(=O)N2CCN(c3ccccc3)CC2)c(C(=O)OC)c1C and give its recorded inhibition of aggregation.
Response: -23.7

Prompt: Consider the compound Cn1cc(Cl)c(C(=O)N(Cc2ccccc2)c2ccccn2)n1 and give its recorded inhibition of aggregation.
Response: -6.5

Prompt: Consider the compound CC(C)CN(CC(C)C)c1nc(N)c(C#N)c(CC#N)c1C#N and give its recorded inhibition of aggregation.
Response: 9

Prompt: Consider the compound O=C1CCN(C(=O)c2ccccc2)C2CCCCC12 (stereo not drawn) and give its recorded inhibition of aggregation.
Response: 4.4

Prompt: Consider the compound COc1ccc2cc(CN(CCO)C(=O)c3ccc(Br)cc3)c(=O)[nH]c2c1 and give its recorded inhibition of aggregation.
Response: -21.4

Prompt: Consider the compound Cc1ccc(C)c(-c2nc3ccc(N)cc3[nH]2)c1 and give its recorded inhibition of aggregation.
Response: 30.3

Prompt: Consider the compound Nc1nc(Nc2ccc(Cl)cc2Cl)nc(C(F)(F)F)n1 and give its recorded inhibition of aggregation.
Response: -0.7

Prompt: Consider the compound CCCCCCn1c(CN2CCCC(C)C2)nc2c1c(=O)n(C)c(=O)n2C (stereo not drawn) and give its recorded inhibition of aggregation.
Response: -10.6

Prompt: Consider the compound CCOC(=O)N1CCC(NC(=O)c2ccc3c(c2)N(CC)CCS3)CC1 and give its recorded inhibition of aggregation.
Response: -22.2

Prompt: Consider the compound Cc1cc(N2C(=O)C(O)=C(C(=O)c3ccc(C)o3)C2c2cccs2)no1 (stereo not drawn) and give its recorded inhibition of aggregation.
Response: 13.3

Prompt: Consider the compound O=C(Nc1cc(C(F)(F)F)ccc1N1CCCC1)c1ccc2c(c1)OCO2 and give its recorded inhibition of aggregation.
Response: 16.7

Prompt: Consider the compound CCOC(=O)c1ccc(N2C(=O)C3CC=CCC3C2=O)cc1 (stereo not drawn) and give its recorded inhibition of aggregation.
Response: -0.1

Prompt: Consider the compound Cn1c(=O)c2c(-c3ccncc3)c3c(nc2n(C)c1=O)-c1ccccc1C3=O and give its recorded inhibition of aggregation.
Response: -3.3

Prompt: Consider the compound Cc1ccc(OCC(O)Cn2c(=N)n(CCN3CCCCC3)c3ccccc32)cc1 (stereo not drawn) and give its recorded inhibition of aggregation.
Response: 2.3

Prompt: Consider the compound O=C(c1ccccc1)N1CCN(CC2CC=CCC2)CC1 (stereo not drawn) and give its recorded inhibition of aggregation.
Response: 21.1

Prompt: Consider the compound CCCc1cc(C(=O)Nc2sc(C)c(C)c2C(=O)OCC)no1 and give its recorded inhibition of aggregation.
Response: 2.1

Prompt: Consider the compound O=C(C1CCCN1S(=O)(=O)c1cccc2cccnc12)N1CCn2c1nc1ccccc12 (stereo not drawn) and give its recorded inhibition of aggregation.
Response: -15.8

Prompt: Consider the compound Nc1nc(N2CCN(C/C=C/c3ccccc3)CC2)nc2ccccc12 and give its recorded inhibition of aggregation.
Response: 2
